test system: Hepatitis C virus; assay: Antiviral activity against HCV infected in HuH7 Clone B cells assessed as inhibition of viral replication after 5 days by RT-PCR method; type: functional, organism-based, Hepacivirus hominis; details: 120 h
EC50 values, listed per item
QUANTITY_NAME: EC50 (µM)

CCOC(=O)[C@H](C)NP(=O)(OC[C@H]1O[C@@H](n2cnc3c(OC)nc(ONC(=O)OCc4ccccc4)nc32)[C@](C)(O)[C@@H]1O)Oc1ccccc1 (stereo partly specified) : 4.1
CC(C)(CO)C(=O)SCCOP(=O)(NCc1ccccc1)OC[C@H]1O[C@@H](n2cnc3c(=O)[nH]c(N)nc32)[C@](C)(O)[C@@H]1O (stereo partly specified) : 0.3
CCOC(=O)[C@H](C)NP(=O)(OC[C@H]1O[C@@H](n2cnc3c(ONC(=O)OC(C)(C)C)nc(N)nc32)[C@](C)(O)[C@@H]1O)Oc1ccccc1 (stereo partly specified) : 0.3

----------
tested on: Hepatitis C virus; experiment: Antiviral activity against HCV infected in HuH7 Clone B cells assessed as inhibition of viral replication after 5 days by RT-PCR method; assay type: functional, organism-based, Hepacivirus hominis; details: 120 h
EC50 values, listed per item
QUANTITY_NAME: EC50

COc1nc(N)c2ncn([C@@H]3O[C@H](CO)[C@@H](O)[C@@]3(C)O)c2n1 : > 10 µM
C[C@@]1(O)[C@H](O)[C@@H](CO)O[C@H]1n1cnc2c(N)nc(F)nc21 : > 10 µM
CONc1nc(N)nc2c1ncn2[C@@H]1O[C@H](CO)[C@@H](O)[C@@]1(C)O : > 10 µM
